target: rabbit kidney ACE (Oryctolagus cuniculus, UniProt P12822); construct: purchased Sigma; host or cells: rabbit kidney; assay: Determination of inhibition constants (Ki), fluorometric ACE assay, hydrolysis of Hippuryl-His-Leu; format: biochemical; conditions: after deacetylation; isomer assigned 2-R; read-out: Ki (individual diastereomers after deacetylation, earlier eluting isomer)
Sequence (P12822 34-1310): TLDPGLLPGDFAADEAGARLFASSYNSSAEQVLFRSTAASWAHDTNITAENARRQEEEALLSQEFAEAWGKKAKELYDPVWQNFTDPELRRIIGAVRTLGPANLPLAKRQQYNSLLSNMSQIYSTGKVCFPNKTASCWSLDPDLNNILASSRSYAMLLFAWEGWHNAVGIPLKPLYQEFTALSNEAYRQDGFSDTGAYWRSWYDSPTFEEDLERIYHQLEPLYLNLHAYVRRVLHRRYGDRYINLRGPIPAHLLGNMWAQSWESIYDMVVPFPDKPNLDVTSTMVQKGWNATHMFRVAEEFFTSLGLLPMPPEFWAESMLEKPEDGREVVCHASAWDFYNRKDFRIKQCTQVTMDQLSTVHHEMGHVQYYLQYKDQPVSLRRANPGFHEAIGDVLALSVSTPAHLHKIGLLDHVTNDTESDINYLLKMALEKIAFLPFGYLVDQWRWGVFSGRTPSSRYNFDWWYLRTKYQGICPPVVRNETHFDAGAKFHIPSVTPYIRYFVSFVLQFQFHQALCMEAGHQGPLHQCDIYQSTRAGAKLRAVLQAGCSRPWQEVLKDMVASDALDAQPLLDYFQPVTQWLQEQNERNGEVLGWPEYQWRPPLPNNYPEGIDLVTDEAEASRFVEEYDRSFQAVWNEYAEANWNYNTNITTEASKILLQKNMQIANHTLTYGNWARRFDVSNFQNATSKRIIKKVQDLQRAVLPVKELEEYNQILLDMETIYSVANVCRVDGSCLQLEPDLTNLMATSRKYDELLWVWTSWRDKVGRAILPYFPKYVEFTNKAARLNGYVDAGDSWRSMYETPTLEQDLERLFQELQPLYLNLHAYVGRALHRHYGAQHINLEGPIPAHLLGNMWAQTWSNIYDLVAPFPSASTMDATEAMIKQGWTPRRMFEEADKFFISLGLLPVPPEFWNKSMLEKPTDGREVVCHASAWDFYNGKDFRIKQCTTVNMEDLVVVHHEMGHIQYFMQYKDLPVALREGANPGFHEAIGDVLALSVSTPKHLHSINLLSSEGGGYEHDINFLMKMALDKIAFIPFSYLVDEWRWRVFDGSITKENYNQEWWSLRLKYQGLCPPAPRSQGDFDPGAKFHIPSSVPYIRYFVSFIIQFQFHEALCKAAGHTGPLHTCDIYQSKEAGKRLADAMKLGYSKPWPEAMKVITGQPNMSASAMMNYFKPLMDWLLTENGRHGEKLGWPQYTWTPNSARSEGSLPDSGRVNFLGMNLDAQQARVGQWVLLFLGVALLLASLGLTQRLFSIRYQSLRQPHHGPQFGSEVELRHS
observable: Ki

compound="COC(=O)[C@@H]1C[C@H](C(=O)O)N(C(=O)[C@H](C)CS)[C@@H]1c1ccccc1 (single isomer, unassigned) [earlier eluting isomer]" endpointresult="> 1000 nM"
